assay_name: RiboTAC cellular uptake quantification
Type: in vitro ADME
condition: human, MDA-MB-231 cells; 5 μM in culture medium

- chemical_structure: "CNC(=O)[C@H](c1ccccc1)N(C)Cc1ccc(-c2cccc(-c3sccc3NC(=O)CCOCCOCCOCCC(=O)NCCN3CCN(c4ccc5nc(-c6c(N)c7c(F)cccc7[nH]c6=O)[nH]c5c4)CC3)c2)cc1"
  readout_unit: "h"
  half-life at 5 μM: 2.4

----------
test_target: pre-miR-21
assay_name: Binding affinity measurement by intrinsic fluorescence
condition: WT pre-miR-21
pKd: −log10 of the molar value.
measurement_kind: pKd

- compound: "CNC(=O)[C@H](c1ccccc1)N(C)Cc1ccc(-c2cccc(-c3sccc3NC(=O)CCOCCOCCOCCC(=O)NCCN3CCN(c4ccc5nc(-c6c(N)c7c(F)cccc7[nH]c6=O)[nH]c5c4)CC3)c2)cc1 [RiboTAC 7]"
  measured_value: 5.34

meta.source: patent US20260167614A1
